- ASSAY NAME: Tissue distribution in C57 BL6 mice bearing B16
- Type: in vivo, mouse
- TEST CONTEXT: mouse, submaxillary glands, iv, 3 umol/animal; 24 h; read-out: submaxillary glands % ID/g
PROPERTY MEASURED: tissue uptake at 24 h (%ID/g)
Kindly answer with a numeric value in %ID/g, unit omitted.

Query: Tell us which tissue uptake at 24 h value is on record for CCN(CC)CCNC(=O)c1ccc(I)cc1 [Derivative A, N-(2-diethylaminoethyl) 4-iodo benzamide]
Result: 0.09

###

The following compounds are shown together with reported tissue uptake at 4 h values.
- ASSAY NAME: Tissue distribution in Swiss nu/nu SSCUP mice bearing Dau
- Format: in vivo, human
- TEST CONTEXT: mouse, spleen, iv, 3 umol/animal; 4 h; read-out: spleen % ID/g
Express it in %ID/g; write the number only.

Query: Identify the reported tissue uptake at 4 h for the following entry. CCNCCNC(=O)c1ccc(I)cc1 [Derivative B, N-(2-ethylaminoethyl) 4-iodo benzamide]
Result: 0.62

Continuing:
Query: Report tissue uptake at 4 h for CCN(CC)CCNC(=O)c1ccc(I)cc1 [Derivative A, N-(2-diethylaminoethyl) 4-iodo benzamide]
Result: 0.8

###

- ASSAY NAME: Tissue distribution in Swiss nu/nu SSCUP mice bearing Beu
- Assay type: in vivo, human
- TEST CONTEXT: mouse, kidney, iv, 3 umol/animal, 6 h; read-out: kidney % ID/g
PROPERTY MEASURED: tissue uptake at 6 h (%ID/g)
Give a bare numeral; the unit %ID/g is implied.

Query: Look up tissue uptake at 6 h of CCN(CC)CCNC(=O)c1ccc(I)cc1 [Derivative A, N-(2-diethylaminoethyl) 4-iodo benzamide] and report it.
Result: 0.99

###

- ASSAY NAME: Tissue distribution in Swiss nu/nu SSCUP mice bearing Beu
- Type: in vivo, human
- TEST CONTEXT: mouse, intestine, iv, 3 umol/animal; 6 h; read-out: intestine % ID/g
PROPERTY MEASURED: tissue uptake at 6 h (%ID/g)
// return numeric value only (unit: %ID/g, not printed)

Query: Fill in reported tissue uptake at 6 h for this entry: CCN(CC)CCNC(=O)c1ccc(I)cc1 [Derivative A, N-(2-diethylaminoethyl) 4-iodo benzamide]
Result: 0.52

###

- ASSAY NAME: Tissue distribution in Swiss nu/nu SSCUP mice bearing Beu
- Assay type: in vivo, human
- TEST CONTEXT: mouse, pancreas, iv, 3 umol/animal; 8 h; read-out: pancreas % ID/g
PROPERTY MEASURED: tissue uptake at 8 h (%ID/g)
Entry rule: numbers only, all in %ID/g.

Query: Identify measured tissue uptake at 8 h corresponding to CCN(CC)CCNC(=O)c1ccc(I)cc1 [Derivative A, N-(2-diethylaminoethyl) 4-iodo benzamide]
Result: 0.12

###

Listing: tissue uptake at 2 h of selected molecules
- ASSAY NAME: Tissue distribution in C57 BL6 mice bearing B16
- Type: in vivo, mouse
- TEST CONTEXT: mouse, brain, iv, 3 umol/animal, 2 h; read-out: brain % ID/g
# number only, unit %ID/g dropped from output

Query: Answer with the recorded tissue uptake at 2 h of CCNCCNC(=O)c1ccc(I)cc1 [Derivative B, N-(2-ethylaminoethyl) 4-iodo benzamide] only.
Result: 2.09

***
Query: Give reported tissue uptake at 2 h value for CCN(CC)CCNC(=O)c1ccc(I)cc1 [Derivative A, N-(2-diethylaminoethyl) 4-iodo benzamide]
Result: 1.4
